Target: Androgen Receptor (Homo sapiens)
Construct: endogenous in cells; host or cells: VCaP cells
Sequence (P10275 1-920): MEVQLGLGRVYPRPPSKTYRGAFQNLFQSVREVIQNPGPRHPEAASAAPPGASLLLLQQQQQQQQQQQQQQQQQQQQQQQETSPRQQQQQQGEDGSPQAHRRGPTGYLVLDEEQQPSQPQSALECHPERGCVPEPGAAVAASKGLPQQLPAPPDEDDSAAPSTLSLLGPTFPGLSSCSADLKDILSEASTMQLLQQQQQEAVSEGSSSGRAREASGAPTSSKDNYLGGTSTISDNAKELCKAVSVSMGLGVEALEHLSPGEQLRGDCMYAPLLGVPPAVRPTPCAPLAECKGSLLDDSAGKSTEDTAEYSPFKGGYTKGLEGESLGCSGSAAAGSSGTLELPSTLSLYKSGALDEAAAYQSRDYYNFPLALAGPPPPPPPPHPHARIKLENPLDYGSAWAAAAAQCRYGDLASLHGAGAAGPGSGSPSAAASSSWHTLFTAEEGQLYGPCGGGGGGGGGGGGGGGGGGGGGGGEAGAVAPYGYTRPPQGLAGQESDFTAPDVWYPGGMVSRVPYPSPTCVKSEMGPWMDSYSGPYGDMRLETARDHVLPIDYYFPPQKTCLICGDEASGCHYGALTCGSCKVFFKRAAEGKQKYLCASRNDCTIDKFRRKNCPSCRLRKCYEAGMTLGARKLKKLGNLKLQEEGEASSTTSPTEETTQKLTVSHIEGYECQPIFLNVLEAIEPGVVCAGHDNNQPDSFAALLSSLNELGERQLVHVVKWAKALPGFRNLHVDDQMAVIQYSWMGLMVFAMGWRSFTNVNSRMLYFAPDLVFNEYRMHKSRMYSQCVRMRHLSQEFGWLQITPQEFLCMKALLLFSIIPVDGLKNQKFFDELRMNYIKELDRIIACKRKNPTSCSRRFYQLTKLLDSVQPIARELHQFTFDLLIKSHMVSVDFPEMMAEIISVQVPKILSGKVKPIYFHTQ
Test: Androgen Receptor ELISA assay (PathScan AR ELISA) in VCaP cells: AR degradation, Dmax and DC50
Format: cell-based
Details: VCaP, highest percentage of Androgen Receptor degradation observed, VCaP cells (Table 32); read-out: VCaP Dmax (%)
Exercise: for every item that follows, state its recorded Dmax.

Quick one: Dmax for Cc1cc(N2C(=O)C(C)(C)N(c3ccc(-c4ccc(OCCCCOCC(=O)N[C@H](C(=O)N5C[C@H](O)C[C@H]5C(=O)NCc5ccc(-c6cnco6)cc5)C(C)(C)C)cc4)cc3)C2=S)ccc1C#N ? 51 to 70%

Query Cc1ncoc1-c1ccc(CNC(=O)[C@@H]2C[C@@H](O)CN2C(=O)[C@@H](NC(=O)CNCCCCCOc2ccc(C(=O)N[C@H]3C(C)(C)[C@H](Oc4ccc(C#N)c(Cl)c4)C3(C)C)cc2)C(C)(C)C)cc1 next 51 to 70%

And for Cc1ncsc1-c1ccc(CNC(=O)[C@@H]2C[C@@H](O)CN2C(=O)[C@@H](NC(=O)COCCCC[C@H](C)Oc2ccc(C(=O)N[C@H]3C(C)(C)[C@H](Oc4ccc(C#N)c(Cl)c4)C3(C)C)cc2)C(C)(C)C)cc1 ? > 71%

Cc1ncsc1-c1ccc(CNC(=O)[C@@H]2C[C@@H](O)CN2C(=O)[C@@H](NC(=O)COCCCCCOc2ccc(C(=O)N[C@H]3C(C)(C)[C@H](Oc4ccc(C#N)c(C(F)(F)F)c4)C3(C)C)cc2)C(C)(C)C)cc1 , same question. > 71%

Same for COc1cc(N2C(=O)C(C)(C)N(c3ccc(-c4ccc(OCCCCOCC(=O)N[C@H](C(=O)N5C[C@H](O)C[C@H]5C(=O)NCc5ccc(-c6ocnc6C)cc5)C(C)(C)C)cc4)cc3)C2=S)ccc1C#N > 71%

Subsequent entry: Cc1ncsc1-c1ccc([C@H](C)NC(=O)[C@@H]2C[C@@H](O)CN2C(=O)[C@@H](NC(=O)COCCCCCOc2ccc(C(=O)N[C@H]3C(C)(C)[C@H](Oc4ccc(C#N)c(Cl)c4)C3(C)C)cc2)C(C)(C)C)cc1 > 71%

* * *

Molecular target: Androgen Receptor (Homo sapiens)
Construct: endogenous in cells; host or cells: VCaP cells
Experiment: Androgen Receptor ELISA assay (PathScan AR ELISA) in VCaP cells: AR degradation, Dmax and DC50
Assay type: cell-based
Conditions: VCaP, VCaP cells; Table 36; read-out: VCaP Dmax (%)
property_measured: Dmax

Sample Cc1ncsc1-c1ccc(CNC(=O)[C@@H]2C[C@@H](O)CN2C(=O)[C@@H](NC(=O)CN2CCN(CCOc3ccc(C(=O)N[C@H]4C(C)(C)[C@H](Oc5ccc(C#N)c(C(F)(F)F)c5)C4(C)C)cc3)CC2)C(C)(C)C)cc1 — what was its Dmax? 26 to 50%

Queued: Cc1ncsc1-c1ccc([C@H](C)NC(=O)[C@@H]2C[C@@H](O)CN2C(=O)[C@H](c2cc(OCCN3CCN(c4ccc(C(=O)N[C@H]5C(C)(C)[C@H](Oc6ccc(C#N)c(Cl)c6)C5(C)C)cn4)CC3)no2)C(C)C)cc1 < 25%

And the next one, Cc1ncsc1-c1ccc(CNC(=O)[C@@H]2C[C@@H](O)CN2C(=O)[C@@H](C(C)C)N2Cc3ccc(N4CCN(CCCc5ccc(C(=O)N[C@H]6C(C)(C)[C@H](Oc7ccc(C#N)c(Cl)c7)C6(C)C)cc5)CC4)cc3C2=O)cc1 ? < 25%

// query: Cc1ncsc1-c1ccc(CNC(=O)[C@@H]2C[C@@H](O)CN2C(=O)C(NC(=O)COCCN2CCN(c3ccc(C(=O)N[C@H]4C(C)(C)[C@H](Oc5ccc(C#N)c(C(F)(F)F)c5)C4(C)C)cn3)C(=O)C2)C(C)(C)C)cc1 (stereo partly drawn) < 25%

Another compound: Cc1ncsc1-c1ccc(CNC(=O)[C@@H]2C[C@@H](O)CN2C(=O)[C@H](C(C)C)N2Cc3ccccc3C2=O)c(N2CCN(CCCc3ccc(C(=O)N[C@H]4C(C)(C)[C@H](Oc5ccc(C#N)c(Cl)c5)C4(C)C)cc3)CC2)c1 51 to 70%

How about Cc1ncsc1-c1ccc([C@H](C)NC(=O)[C@@H]2C[C@@H](O)CN2C(=O)[C@@H](NC(=O)COCCN2CCN(c3ccc(C(=O)N[C@H]4CC(Oc5ccc(C#N)c(Cl)c5)C4(C)C)cn3)CC2)C(C)(C)C)cc1 (stereo partly drawn) ? 51 to 70%

Can you check Cc1ncsc1-c1ccc([C@H](CO)NC(=O)[C@@H]2C[C@@H](O)CN2C(=O)[C@@H](NC(=O)CCCCN2CCN(c3ccc(C(=O)N[C@H]4C(C)(C)[C@H](Oc5ccc(C#N)c(Cl)c5)C4(C)C)cn3)CC2)C(C)(C)C)cc1 next? 26 to 50%

What do you get for CNC(=O)[C@H]1CCCN1C(=O)C(NC(=O)COCCN1CCN(c2ccc(C(=O)N[C@H]3C(C)(C)[C@H](Oc4ccc(C#N)c(Cl)c4)C3(C)C)cn2)CC1)C(C)(C)C (stereo partly drawn) ? < 25%

Now the compound Cc1ncsc1-c1ccc(C(CO)NC(=O)C2C[C@@H](O)CN2C(=O)[C@@H](NC(=O)COCCN2CCN(c3ccc(C(=O)N[C@H]4C(C)(C)[C@H](Oc5ccc(C#N)c(Cl)c5)C4(C)C)cn3)CC2)C(C)(C)C)cc1 (stereo partly drawn) > 71%

* * *

Biological target: Androgen Receptor (Homo sapiens, UniProt P10275+P40337, T878A)
Construct: Compounds have been evaluated in this assay in LNCaP and/or VCaP cells utilizing similar protocols; endogenous in cells; host or cells: LNCaP cells
Test: Androgen Receptor ELISA assay (PathScan AR ELISA) in LNCaP cells: AR degradation, Dmax and DC50
Assay type: cell-based
Conditions: concentration that caused 50% Androgen Receptor degradation
Could you please report measured DC50 for the items listed next?

I have this compound here, Cc1ncsc1-c1ccc(CNC(=O)[C@@H]2C[C@@H](O)CN2C(=O)[C@@H](NC(=O)COCCCOCCCCOc2ccc(CN3C(=S)N(c4ccc(C#N)c(C(F)(F)F)c4)C(=O)C3(C)C)cc2)C(C)(C)C)cc1 [Example 308] , and I need its recorded DC50. 0.051 to 0.5 µM

Do the same for Cc1ncsc1-c1ccc(CNC(=O)[C@@H]2C[C@@H](O)CN2C(=O)[C@H](C(C)C)N2Cc3cc(CCCCOCCOc4ccc(N5C(=S)N(c6ccc(C#N)c(C(F)(F)F)c6)C(=O)C5(C)C)cc4)ccc3C2=O)cc1 [Example 252] please 0.051 to 0.5 µM

Again, but for Cc1ncsc1-c1ccc(CNC(=O)[C@@H]2C[C@@H](O)CC2C(=O)[C@H](C(C)C)N2Cc3ccccc3C2=O)c(OCCOC2CCCC[C@@H]2OCCOc2ccc(N3C(=S)N(c4ccc(C#N)c(C(F)(F)F)c4)C(=O)C3(C)C)cc2)c1 (stereo partly drawn) [Example 297] > 0.501 µM

* * *

Please go through the items and note down their Dmax.
Target: Androgen Receptor (Homo sapiens)
Construct: endogenous in cells; host or cells: VCaP cells
Sequence (P10275 1-920): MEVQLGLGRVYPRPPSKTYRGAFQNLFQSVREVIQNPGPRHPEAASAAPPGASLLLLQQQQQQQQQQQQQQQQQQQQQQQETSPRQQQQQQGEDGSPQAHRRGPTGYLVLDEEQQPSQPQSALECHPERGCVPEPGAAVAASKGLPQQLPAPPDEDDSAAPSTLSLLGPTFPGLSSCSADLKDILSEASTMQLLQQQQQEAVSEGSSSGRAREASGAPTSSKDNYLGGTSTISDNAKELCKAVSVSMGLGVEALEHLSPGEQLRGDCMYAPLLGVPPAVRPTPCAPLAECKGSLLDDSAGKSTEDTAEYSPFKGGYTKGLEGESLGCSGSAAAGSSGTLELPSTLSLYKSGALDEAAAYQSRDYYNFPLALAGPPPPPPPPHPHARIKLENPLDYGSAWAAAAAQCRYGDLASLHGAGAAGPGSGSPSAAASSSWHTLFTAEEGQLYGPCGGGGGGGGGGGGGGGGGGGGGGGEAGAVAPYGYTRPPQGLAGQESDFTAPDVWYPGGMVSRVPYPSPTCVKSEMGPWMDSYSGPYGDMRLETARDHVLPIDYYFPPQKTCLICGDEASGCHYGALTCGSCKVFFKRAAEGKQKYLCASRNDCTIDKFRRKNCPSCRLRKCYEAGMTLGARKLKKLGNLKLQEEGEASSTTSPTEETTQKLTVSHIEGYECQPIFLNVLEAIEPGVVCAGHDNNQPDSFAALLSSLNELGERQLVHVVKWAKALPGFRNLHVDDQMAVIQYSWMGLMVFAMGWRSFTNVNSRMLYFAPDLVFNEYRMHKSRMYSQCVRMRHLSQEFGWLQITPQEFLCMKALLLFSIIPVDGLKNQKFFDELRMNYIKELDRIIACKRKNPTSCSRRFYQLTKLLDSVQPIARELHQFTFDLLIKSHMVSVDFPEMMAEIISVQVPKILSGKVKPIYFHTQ
Assay: Androgen Receptor ELISA assay (PathScan AR ELISA) in VCaP cells: AR degradation, Dmax and DC50
Type: cell-based
Settings: VCaP, VCaP cells; Table 35; read-out: VCaP Dmax (%)

# input compound: Cc1ncsc1-c1ccc([C@@H](C)NC(=O)[C@H]2C[C@H](O)CN2C(=O)[C@H](NC(=O)COCCCCCNc2ccc(C(=O)N[C@H]3C(C)(C)[C@H](Oc4ccc(C#N)c(Cl)c4)C3(C)C)cc2)C(C)(C)C)cc1 [Example 454] ; wanted: its Dmax 26 to 50%

Would you kindly repeat that for CC(C)(C)[C@H](NC(=O)COCCCCCOc1ccc(C(=O)N[C@H]2C(C)(C)[C@H](Oc3ccc(C#N)c(Cl)c3)C2(C)C)cc1)C(=O)N1C[C@H](O)C[C@H]1C(=O)O [Example 509] ? 26 to 50%

Can you check CC(C)(C)[C@H](NC(=O)COCCCCCNc1ccc(C(=O)N[C@H]2C(C)(C)[C@H](Oc3ccc(C#N)c(Cl)c3)C2(C)C)cc1)C(=O)N1C[C@H](O)C[C@H]1C(=O)NCc1ccc(-c2scnc2C(=O)O)cc1 [Example 502] next? 26 to 50%
